- Measurement Description: Single oral dose pharmacokinetics study in rats (10 mg/kg PO; plasma levels of prodrug and of metabolite DMT or 5-MeO-DMT by LC-MS/MS)
- Condition Set: male, Sprague-Dawley, rat, plasma, po, 10 mg/kg, AUC0-24 (h*ng/mL), oral 10 mg/Kg, analyte = dosed prodrug, mean
Quantity Measured: AUC(0-t)

Q. # query: AUC(0-t) of entry CC(C)OC(=O)n1cc(CCN(C)C)c2ccccc21
A. 60.9 ng·h/mL

###

- Measurement Description: Single oral dose pharmacokinetics study in rats (10 mg/kg PO; plasma levels of prodrug and of metabolite DMT or 5-MeO-DMT by LC-MS/MS)
- Condition Set: PO 10 mg/kg, plasma, analyte = dosed compound
Respond with True for Clast values of 2 ng/mL and above, False for values below.

Please review the entries below; each comes with its answer.
[
  {
    "Molecule": "COc1ccc2c(c1)c(CCN(C)C)cn2P(=O)(OC(C)C)OC(C)C [Diisopropylphosphonate 5-MeO-DMT Prodrug]",
    "Category Label": "True"
  },
  {
    "Molecule": "CCOC(=O)n1cc(CCN(C)C)c2ccccc21 [Compound 20]",
    "Category Label": "True"
  },
  {
    "Molecule": "CC(C)OP(=O)(OC(C)C)n1cc(CCN(C)C)c2ccccc21 [Diisopropylphosphonate DMT Prodrug]",
    "Category Label": "True"
  },
  {
    "Molecule": "CCOC(=O)n1cc(CCN(C)C)c2cc(OC)ccc21 [Compound 19]",
    "Category Label": "False"
  }
]

Q. Please check the record CN(C)CCc1c[nH]c2ccccc12 [DMT, N,N-dimethyltryptamine] and state if its Clast is at or above 2 ng/mL.
A. False

###

- Measurement Description: Single oral dose pharmacokinetics study in rats (10 mg/kg PO; plasma levels of prodrug and of metabolite DMT or 5-MeO-DMT by LC-MS/MS)
- Condition Set: male, Sprague-Dawley, rat, plasma, po, 10 mg/kg, Cmax (ng/mL), oral 10 mg/Kg, analyte = dosed prodrug, mean
Respond with 1 for Cmax values of 20 ng/mL and above, -1 for values below.

Please review the entries below; each comes with its answer.
[
  {
    "Compound": "COc1ccc2c(c1)c(CCN(C)C)cn2C(=O)OC(C)C",
    "Category Label": -1
  },
  {
    "Compound": "CN(C)CCc1cn(C(=O)OC(C)(C)C)c2ccccc12",
    "Category Label": -1
  }
]

Q. Please check the record COc1ccc2c(c1)c(CCN(C)C)cn2C(=O)CCC(=O)O [5-MeO-DMT Non-Lipid Prodrug 5] and state if its Cmax is at or above 20 ng/mL.
A. 1

Q. Please check the record CN(C)CCc1cn(C(=O)c2ccccc2)c2ccccc12 [DMT Benzamide] and state if its Cmax is at or above 20 ng/mL.
A. -1

Q. Please check the record CC(C)OC(=O)n1cc(CCN(C)C)c2ccccc21 and state if its Cmax is at or above 20 ng/mL.
A. -1

Q. Please check the record CC(C)COC(=O)n1cc(CCN(C)C)c2ccccc21 and state if its Cmax is at or above 20 ng/mL.
A. -1

Q. Please check the record CCCOC(=O)n1cc(CCN(C)C)c2cc(OC)ccc21 and state if its Cmax is at or above 20 ng/mL.
A. -1

Q. Please check the record CCCOC(=O)n1cc(CCN(C)C)c2ccccc21 and state if its Cmax is at or above 20 ng/mL.
A. -1

Q. Please check the record COc1ccc2c(c1)c(CCN(C)C)cn2C(=O)CCCC(=O)O [5-MeO-DMT Non-Lipid Prodrug 6] and state if its Cmax is at or above 20 ng/mL.
A. 1

Q. Please check the record COc1ccc2c(c1)c(CCN(C)C)cn2C(=O)OC(C)(C)C and state if its Cmax is at or above 20 ng/mL.
A. -1

Q. Please check the record CC(=O)n1cc(CCN(C)C)c2ccccc21 and state if its Cmax is at or above 20 ng/mL.
A. -1
